I'd be grateful if you could share measured pIC50 for these entries.
pIC50 here is simply -log10 of the concentration when that concentration is written in mol/L.

Exam item: # value lookup — system Aromatase (Homo sapiens), readout pIC50, item CC[C@@H]1C[C@@H]2[C@H](CC[C@]3(C)C(=O)CC[C@@H]23)[C@@]2(C)C=CC(=O)C=C12
Marked response: 7.27

Exam item: # value lookup — system Aromatase (Homo sapiens), readout pIC50, item CC(C)[C@H]1C[C@@H]2[C@H](CC[C@]3(C)C(=O)CC[C@@H]23)[C@@]2(C)CCC(=O)C=C12
Marked response: 5.85

Exam item: # value lookup — system Aromatase (Homo sapiens), readout pIC50, item C[C@]12C=C(O)C(=O)C=C1C(=O)C[C@@H]1[C@@H]2CC[C@]2(C)C(=O)CC[C@@H]12
Marked response: 5.25

Exam item: # value lookup — system Aromatase (Homo sapiens), readout pIC50, item C[C@]12CCC(=O)C=C1C[C@@H](SCc1ccccc1)[C@@H]1[C@@H]2CC[C@]2(C)C(=O)CC[C@@H]12
Marked response: 7.16

Exam item: # value lookup — system Aromatase (Homo sapiens), readout pIC50, item C[C@]12CCC(=O)C=C1C(c1ccccc1)=C[C@@H]1[C@@H]2CC[C@]2(C)C(=O)CC[C@@H]12
Marked response: 6.70

Exam item: # value lookup — system Aromatase (Homo sapiens), readout pIC50, item CO[C@@H]1C[C@@H]2[C@H](CC[C@]3(C)C(=O)CC[C@@H]23)c2ccc(O)cc21
Marked response: 4.31

Exam item: # value lookup — system Aromatase (Homo sapiens), readout pIC50, item CC1(C)C[C@@]2(C)C(=CC1=O)[C@H](Br)C[C@@H]1[C@@H]2CC[C@]2(C)C(=O)CC[C@@H]12
Marked response: 6.96

---

I'd be grateful if you could share measured pIC50 for these entries.
pIC50 here is simply -log10 of the concentration when that concentration is written in mol/L.

Exam item: # value lookup — system Aromatase (Homo sapiens), readout pIC50, item CCCCCC1=C[C@@]2(C)C(=CC1=O)CC[C@@H]1[C@@H]2CC[C@]2(C)C(=O)CC[C@@H]12
Marked response: 6.13

Exam item: # value lookup — system Aromatase (Homo sapiens), readout pIC50, item C#C[C@H](O)[C@]12CCCC=C1CC[C@@H]1[C@@H]2CC[C@]2(C)C(=O)CC[C@@H]12
Marked response: 4.21

Exam item: # value lookup — system Aromatase (Homo sapiens), readout pIC50, item C[C@]12CC[C@H]3[C@@H](CC(=O)C4=CC(=O)CC[C@@]43C)[C@@H]1CC[C@@H]2OC(=O)CBr
Marked response: 4.38

Exam item: # value lookup — system Aromatase (Homo sapiens), readout pIC50, item CC1(C)C[C@@]2(C)C(=CC1=O)[C@@H](Br)C[C@@H]1[C@@H]2CC[C@]2(C)C(=O)CC[C@@H]12
Marked response: 7.00

Exam item: # value lookup — system Aromatase (Homo sapiens), readout pIC50, item CCC[C@@H]1C[C@@H]2[C@H](CC[C@]3(C)C(=O)CC[C@@H]23)[C@@]2(C)C=CC(=O)C=C12
Marked response: 7.22

Exam item: # value lookup — system Aromatase (Homo sapiens), readout pIC50, item CCCC[C@@H]1C[C@@H]2[C@H](CC[C@]3(C)C(=O)CC[C@@H]23)[C@@]2(C)C=CC(=O)C=C12
Marked response: 6.75

Exam item: # value lookup — system Aromatase (Homo sapiens), readout pIC50, item C[C@]12CCC(=O)C=C1C[C@H](CCc1ccccc1)[C@@H]1[C@@H]2CC[C@]2(C)C(=O)CC[C@@H]12
Marked response: 7.40

Exam item: # value lookup — system Aromatase (Homo sapiens), readout pIC50, item C[C@]12CC[C@H]3[C@@H](CC(=O)C4=CCCC[C@@]43C)[C@@H]1CC[C@@H]2O
Marked response: 5.75

Exam item: # value lookup — system Aromatase (Homo sapiens), readout pIC50, item C[C@]12CCC(=O)C=C1C(Cc1ccccc1)=C[C@@H]1[C@@H]2CC[C@]2(C)C(=O)CC[C@@H]12
Marked response: 7.11

Exam item: # value lookup — system Aromatase (Homo sapiens), readout pIC50, item C[C@]12CC[C@H]3[C@@H](CCC4=CC(=O)CC[C@@]43C(F)F)[C@@H]1CC[C@@H]2O
Marked response: 6.38

Exam item: # value lookup — system Aromatase (Homo sapiens), readout pIC50, item CC(=O)OC[C@]12CCCC=C1CC[C@@H]1[C@@H]2CC[C@]2(C)C(O)CC[C@@H]12 (some centres undefined)
Marked response: 4.36

Exam item: # value lookup — system Aromatase (Homo sapiens), readout pIC50, item C[C@]12CCCC(=O)C1=CC(=O)[C@@H]1[C@@H]2CC[C@]2(C)C(=O)CC[C@@H]12
Marked response: 5.44

Exam item: # value lookup — system Aromatase (Homo sapiens), readout pIC50, item CC[C@H]1C[C@@H]2[C@H](CC[C@]3(C)C(=O)CC[C@@H]23)[C@@]2(C)C=CC(=O)C=C12
Marked response: 6.60

Exam item: # value lookup — system Aromatase (Homo sapiens), readout pIC50, item Cc1ccc(S(=O)(=O)N2[C@H]3[C@@H]4[C@H](CC[C@]5(C)C(=O)CC[C@@H]45)[C@@]4(C)CCC(=O)C=C4[C@H]32)cc1 (some centres undefined)
Marked response: 4.03

Exam item: # value lookup — system Aromatase (Homo sapiens), readout pIC50, item C[C@]12CCC(=O)C=C1[C@H](CCCCCc1ccccc1)C[C@@H]1[C@@H]2CC[C@]2(C)C(=O)CC[C@@H]12
Marked response: 3.35

Exam item: # value lookup — system Aromatase (Homo sapiens), readout pIC50, item C[C@]12CC[C@H]3[C@@H](CCC4=CC(=O)C(O)C[C@@]43C(F)F)[C@@H]1CCC2=O (some centres undefined)
Marked response: 5.42

Exam item: # value lookup — system Aromatase (Homo sapiens), readout pIC50, item CC1C[C@H]2[C@@H]3CC[C@H](O)[C@@]3(C)CC[C@@H]2[C@@]2(C)C=CC(=O)C=C12 (some centres undefined)
Marked response: 7.17

Exam item: # value lookup — system Aromatase (Homo sapiens), readout pIC50, item C[C@]12C=CC(=O)C=C1[C@H](CCCCc1ccccc1)C[C@@H]1[C@@H]2CC[C@]2(C)C(=O)CC[C@@H]12
Marked response: 6.33

Exam item: # value lookup — system Aromatase (Homo sapiens), readout pIC50, item C[C@]12CCC(=O)C=C1[C@H](OC(=O)CBr)C[C@@H]1[C@@H]2CC[C@]2(C)C(=O)CC[C@@H]12
Marked response: 4.35

Exam item: # value lookup — system Aromatase (Homo sapiens), readout pIC50, item C[C@]12C=C(CCc3ccccc3)C(=O)C=C1CC[C@@H]1[C@@H]2CC[C@]2(C)C(=O)CC[C@@H]12
Marked response: 5.59

Exam item: # value lookup — system Aromatase (Homo sapiens), readout pIC50, item CCCCCCCC1=C[C@@H]2[C@H](CC[C@]3(C)C(=O)CC[C@@H]23)[C@@]2(C)C=CC(=O)C=C12
Marked response: 6.64

Exam item: # value lookup — system Aromatase (Homo sapiens), readout pIC50, item C[C@]12CC[C@H]3[C@@H](C(=O)C=C4C(=O)CCC[C@@]43CO)[C@@H]1CCC2=O
Marked response: 4.32

Exam item: # value lookup — system Aromatase (Homo sapiens), readout pIC50, item C[C@@H]1C[C@@H]2[C@H](CC[C@]3(C)C(=O)CC[C@@H]23)[C@@]2(C)CCC(=O)C=C12
Marked response: 6.14

Exam item: # value lookup — system Aromatase (Homo sapiens), readout pIC50, item C[C@]12CC[C@@H]3c4ccc(O)c(NC(=O)c5ccccn5)c4CC[C@H]3[C@@H]1CCC2=O
Marked response: 3.69

Exam item: # value lookup — system Aromatase (Homo sapiens), readout pIC50, item C[C@]12C=CC(=O)C=C1[C@H](CCCc1ccccc1)C[C@@H]1[C@@H]2CC[C@]2(C)C(=O)CC[C@@H]12
Marked response: 6.16

Exam item: # value lookup — system Aromatase (Homo sapiens), readout pIC50, item C[C@]12CCC(=O)C=C1[C@H](Cc1ccccc1)C[C@@H]1[C@@H]2CC[C@]2(C)C(=O)CC[C@@H]12
Marked response: 5.40

Exam item: # value lookup — system Aromatase (Homo sapiens), readout pIC50, item C[C@]12C=CC(=O)C(Sc3ccccc3)=C1CC[C@@H]1[C@@H]2CC[C@]2(C)C(=O)CC[C@@H]12
Marked response: 6.30

Exam item: # value lookup — system Aromatase (Homo sapiens), readout pIC50, item C[C@]12CC[C@H]3[C@@H](C(=O)C=C4C(=O)CCC[C@@]43C)[C@@H]1CC[C@@H]2O
Marked response: 4.24

Exam item: # value lookup — system Aromatase (Homo sapiens), readout pIC50, item C[C@]12CCC3[C@@H](CC(=O)[C@]45O[C@H]4CCC[C@]35C=O)C1CCC2=O (some centres undefined)
Marked response: 3.82
